test system: ULK1; conditions: concentration: 1 μM, replicates: in singlicate; n = 1;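 further: KINOMEscan kinase panel screen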
Assignment: determine reported %Inh for the given compounds.
Return type: number; implicit unit %.

Using known records, supply %Inh for FC(F)(F)c1ccc(-c2nn3ncccc3c2-c2ccnc(Nc3cccc(C(F)(F)F)c3)n2)cc1
0

Using known records, supply %Inh for CCc1nc(-c2cccc(N(C)S(=O)(=O)c3ccccc3)c2)c(-c2ccnc(Nc3ccc(N4CCN(C(C)=O)CC4)nc3)n2)s1
4

Using known records, supply %Inh for COC(=O)c1c(-c2ccccc2)c2cc(Cl)ccc2c(=O)n1Cc1ccc(S(C)(=O)=O)cc1
0

Using known records, supply %Inh for O=C(Nc1ccccc1)Nc1ccc(Oc2ccc3nccn3n2)cc1
0

Using known records, supply %Inh for COc1ccc(NC(=O)c2ccc(-c3cc(-c4nnc(C)o4)ccc3C)cc2)cc1
6

Using known records, supply %Inh for CCC(CC)(CC)n1cnc2c(N)ncnc21
31

Using known records, supply %Inh for Clc1cc(Nc2ncnc3cc[nH]c23)ccc1OCc1ccccn1
9

Using known records, supply %Inh for Cl.c1ccc(Cn2ccc3cc(Nc4ncnc5ccccc45)ccc32)cc1
1
